Origin of the recorded values: ChEMBL document CHEMBL1152882

test: Clearance in cynomolgus monkey at 0.5 mg/kg, iv and 2 mg/kg, po; assay type: ADME, organism-based, Macaca fascicularis; conditions: in vivo
Observed Property: clearance (mL/min/kg)
Could you give me the number in mL/min/kg? Just the number is fine.

Identify measured clearance associated with "C[C@](O)(c1ccc(C(=O)N(C2CC2)[C@H]2CC[C@](O)(C3CC3)CC2)cc1)C(F)(F)F"
1.83

----------
metabolised at 0.5 h by entry:
assay: Metabolic stability in human liver microsomes assessed as compound turnover after 30 mins; format: ADME, Microsome; conditions: read-out: Activity

Solved cases below.
- Line Notation: "CC(C)[C@]1(O)CC[C@@H](N(C(=O)c2ccc([C@](C)(O)C(F)(F)F)cc2)C2CC2)CC1"
  metabolised at 0.5 h: "10%"
- Line Notation: "C[C@](O)(c1ccc(C(=O)N(C2CC2)[C@H]2CC[C@](O)(c3cccnc3)CC2)cc1)C(F)(F)F"
  metabolised at 0.5 h: "< 5%"
- Line Notation: "C[C@](O)(c1ccc(C(=O)N(C2CC2)[C@H]2CC[C@](C#N)(c3cccnc3)CC2)cc1)C(F)(F)F"
  metabolised at 0.5 h: "< 5%"
- Line Notation: "C[C@](O)(c1ccc(C(=O)N(C2CC2)[C@H]2CC[C@](O)(c3ccccc3)CC2)cc1)C(F)(F)F"
  metabolised at 0.5 h: "< 5%"
- Line Notation: "C[C@](O)(c1ccc(C(=O)N(C2CC2)[C@H]2CC[C@@](O)(c3ccccc3)CC2)cc1)C(F)(F)F"
  metabolised at 0.5 h: "15%"

Identify measured metabolised at 0.5 h associated with "C[C@](O)(c1ccc(C(=O)N(C2CC2)[C@H]2CC[C@H](c3ccccc3)CC2)cc1)C(F)(F)F"
< 5%

Give the measured metabolised at 0.5 h for "C[C@](O)(c1ccc(C(=O)N(C2CC2)[C@H]2CC[C@@H](c3cccnc3)CC2)cc1)C(F)(F)F"
94%

Determine its reported metabolised at 0.5 h: "C[C@](O)(c1ccc(C(=O)N(C2CC2)[C@H]2CC[C@](C#N)(C3CC3)CC2)cc1)C(F)(F)F"
< 10%

----------
Molecular target: Nuclear receptor subfamily 1 group I member 2 (Homo sapiens, UniProt O75469)
Sequence (O75469 whole entry): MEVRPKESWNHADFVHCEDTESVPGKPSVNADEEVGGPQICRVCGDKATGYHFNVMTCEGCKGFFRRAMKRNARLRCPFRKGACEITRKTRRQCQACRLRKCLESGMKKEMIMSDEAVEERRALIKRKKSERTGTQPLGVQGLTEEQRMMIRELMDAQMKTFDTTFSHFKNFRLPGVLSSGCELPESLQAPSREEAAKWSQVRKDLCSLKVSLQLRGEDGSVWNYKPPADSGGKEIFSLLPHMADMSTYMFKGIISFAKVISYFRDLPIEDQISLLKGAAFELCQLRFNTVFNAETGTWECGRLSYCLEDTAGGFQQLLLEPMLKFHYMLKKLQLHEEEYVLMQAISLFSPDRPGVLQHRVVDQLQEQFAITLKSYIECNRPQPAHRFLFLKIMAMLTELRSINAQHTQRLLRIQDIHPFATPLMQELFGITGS
Assay: Activation of human PXR expressed in human HepG2 cells at 2 uM by luciferase reporter gene assay relative to rifampin
Format: cell-based
Conditions: hepg2, 2 µM
# Activity per entry
Enter your answer as a number in %; do not include the unit.

Use these answered entries as a reference point.
- Line Notation: "C[C@@](O)(c1ccc(C(=O)N(C2CC2)[C@H]2CC[C@@](C#N)(c3ccccn3)CC2)cc1)C(F)(F)F"
  Activity (%): 6.3
- Line Notation: "C[C@](O)(c1ccc(C(=O)N(C2CC2)[C@H]2CC[C@H](c3ccc(C#N)cc3)CC2)cc1)C(F)(F)F"
  Activity (%): 11
- Line Notation: "C[C@](O)(c1ccc(C(=O)N(C2CC2)[C@H]2CC[C@H](c3cccnc3)CC2)cc1)C(F)(F)F"
  Activity (%): 2.2

Report Activity on Nuclear receptor subfamily 1 group I member 2 (Homo sapiens, UniProt O75469) for this entry: "C[C@](O)(c1ccc(C(=O)N(C2CC2)[C@H]2CC[C@](O)(CC3CC3)CC2)cc1)C(F)(F)F"
5.9

Print Nuclear receptor subfamily 1 group I member 2 (Homo sapiens, UniProt O75469) Activity for "C[C@](O)(c1ccc(C(=O)N(C2CC2)[C@H]2CC[C@](O)(c3ccccn3)CC2)cc1)C(F)(F)F" .
6.1

Report the value of Activity obtained on Nuclear receptor subfamily 1 group I member 2 (Homo sapiens, UniProt O75469) for "C[C@](O)(c1ccc(C(=O)N(C2CC2)[C@H]2CC[C@H](c3ccccc3)CC2)cc1)C(F)(F)F" .
31

Give Activity for "C[C@@](O)(c1ccc(C(=O)N(C2CC2)[C@H]2CC[C@](C#N)(c3ccccn3)CC2)cc1)C(F)(F)F" tested on Nuclear receptor subfamily 1 group I member 2 (Homo sapiens, UniProt O75469).
7.6

Report value: Activity, system: Nuclear receptor subfamily 1 group I member 2 (Homo sapiens, UniProt O75469), molecule: "C[C@](O)(c1ccc(C(=O)N(C2CC2)[C@H]2CC[C@@H](c3ccc(C#N)cc3)CC2)cc1)C(F)(F)F"
75
